Listed next: entries and their corresponding Percentage Cell Growth.
- Tested on: 786-0
- runDescription: NCI-60 SRB screen: renal cancer 786-0
- Type: cell-based, human
- conditionSummary: 786-0; single dose 10 µM
Expressed in %, but write only the number.

Consider the following illustrative entries.
>  <compound>
C=C(C)[C@@H]1CC[C@]2(C(=O)OC)CC[C@]3(C)[C@H](CC[C@@H]4[C@@]5(C)CCC(=NOCCC(=NOCCC#N)NCCC#N)C(C)(C)[C@@H]5CC[C@]43C)[C@@H]12

>  <readingUnit>
%

>  <endpointValue>
−11.47

$$$$
>  <compound>
C=C(C)[C@@H]1CC[C@]2(C(=O)NCCNCCNCCN)CC[C@]3(C)[C@H](CC[C@@H]4[C@@]5(C)CC[C@H](O)C(C)(C)[C@@H]5CC[C@]43C)[C@@H]12

>  <readingUnit>
%

>  <endpointValue>
−83.51

$$$$
>  <compound>
C=C(C)[C@@H]1CC[C@]2(C(=O)NCCCN)CC[C@]3(C)[C@H](CC[C@@H]4[C@@]5(C)CCC(=O)C(C)(C)[C@@H]5CC[C@]43C)[C@@H]12

>  <readingUnit>
%

>  <endpointValue>
−22.61

$$$$
>  <compound>
C=C(C)[C@@H]1CC[C@]2(C(N)=O)CC[C@]3(C)[C@H](CC[C@@H]4[C@@]5(C)CC[C@H](O)C(C)(C)[C@@H]5CC[C@]43C)[C@@H]12

>  <readingUnit>
%

>  <endpointValue>
−72.16

$$$$
>  <compound>
CC(=O)OCC12CCC(C(C)C(N)=O)C1C1CCC3C4(C)CCC(OC(C)=O)C(C)(C)C4CCC3(C)C1(C)CC2 (stereo not drawn)

>  <readingUnit>
%

>  <endpointValue>
−73.99

$$$$

Enter recorded Percentage Cell Growth with 786-0 for C=C(C)[C@@H]1CC[C@]2(C(=O)NCCNCCNCCN)CC[C@]3(C)[C@H](CC[C@@H]4[C@@]5(C)CCC(=O)C(C)(C)[C@@H]5CC[C@]43C)[C@@H]12 here. −84.46
